# Target Entity: Gal(b1-3)[Neu5Ac(a2-6)]GalNAc
# Experiment Summary: glycan array binding signal (z-score within array); higher = stronger binding
# Run Conditions: glycan notation: IUPAC condensed, linker removed
Shown is part of a subset that was picked to be rich in the strongest signals.
Quantity Kind: glycan array binding signal (z-score)

CFEM-CGl (Candida glabrata), Q6FRS0 (protein) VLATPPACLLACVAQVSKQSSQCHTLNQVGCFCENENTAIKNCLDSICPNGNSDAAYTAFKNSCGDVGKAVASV | 2.93

**Q:** Give a short answer stating reported glycan array binding signal (z-score) for rPitB (Streptococcus pneumoniae), A0A0I7U739 (protein) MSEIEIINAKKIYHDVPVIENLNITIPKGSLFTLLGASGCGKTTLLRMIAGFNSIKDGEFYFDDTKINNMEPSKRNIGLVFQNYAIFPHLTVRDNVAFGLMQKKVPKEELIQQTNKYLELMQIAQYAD .
**A:** 0.092
